Measured residual activity of individual entries
Target: TSSK1B (human) (UniProt Q9BXA7)
Sequence (Q9BXA7 whole entry, looked up): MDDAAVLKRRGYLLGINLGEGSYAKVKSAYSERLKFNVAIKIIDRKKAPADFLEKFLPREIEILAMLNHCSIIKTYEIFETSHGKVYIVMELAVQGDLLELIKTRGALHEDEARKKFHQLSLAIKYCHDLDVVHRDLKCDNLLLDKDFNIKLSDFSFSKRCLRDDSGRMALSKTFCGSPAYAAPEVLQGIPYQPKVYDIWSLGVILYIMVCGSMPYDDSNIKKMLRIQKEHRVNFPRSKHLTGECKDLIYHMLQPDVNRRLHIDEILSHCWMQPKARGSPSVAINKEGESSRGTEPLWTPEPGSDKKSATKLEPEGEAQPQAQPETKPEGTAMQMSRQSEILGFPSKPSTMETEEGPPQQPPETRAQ
Experiment: radiometric filter-binding kinase assay, Kinase HotSpot
Conditions: compound 0.5 µM; ATP 10 µM
I only need the number, in %, no unit after it.

1. COc1ccc2c(c1)/C(=C/c1cnc[nH]1)C(O)=N2 | 101

Value sought: residual activity, system TSSK1B (human) (UniProt Q9BXA7), item `C[C@@H]1CCN(C(=O)CC#N)C[C@@H]1N(C)c1ncnc2[nH]ccc12` . Result: 85.1

# residual activity measured on TSSK1B (human) (UniProt Q9BXA7) for item `O=C(c1cc2cc(O)ccc2[nH]1)c1cc2cc(O)ccc2[nH]1` = 96.4

Sample `COc1ccc2c(c1)c(C1=C(c3c[nH]c4ccccc34)C(=O)NC1=O)cn2CCCN(C)C` , system: TSSK1B (human) (UniProt Q9BXA7). Its residual activity is 80.3

# lookup: `CN(C)S(=O)(=O)c1ccc2c(c1)/C(=C/c1cc3c([nH]1)CCCC3)C(=O)N2` on TSSK1B (human) (UniProt Q9BXA7), residual activity = 74.6

`Cc1cncc2cccc(S(=O)(=O)N3CCCN(C(=O)CN)C[C@H]3C)c12` on TSSK1B (human) (UniProt Q9BXA7) gives residual activity = 103

`COc1ccc(S(=O)(=O)N(CCO)c2ccccc2CN(C)C/C=C/c2ccc(Cl)cc2)cc1` tested on TSSK1B (human) (UniProt Q9BXA7) gave residual activity: 103

Entry `CO[C@@H]1[C@H](N(C)C(=O)c2ccccc2)C[C@H]2O[C@]1(C)n1c3ccccc3c3c4c(c5c6ccccc6n2c5c31)C(=O)NC4` : residual activity on TSSK1B (human) (UniProt Q9BXA7) = 8.24

Measured residual activity (TSSK1B (human) (UniProt Q9BXA7)), entry `COc1ccc(C(=O)Nc2sc3c(c2C(N)=O)CCCC3)cc1OC` : 115
